Assignment: determine reported Viability (%) (Relative to DMSO) for the given compounds.
tested on: MM1.S; experiment: Viability of sensitive cell line relative to DMSO; assay type: cell-based, human
One number for each entry, in %.

Each compound below has a recorded value; state its Viability (%) (Relative to DMSO).
1. O=C1CCC(NCCc2ccccn2)C(=O)N1 (stereo not shown)
2. Cn1c(=O)ccn(CCCCc2ccccc2)c1=O
3. CNc1ccccc1C(=O)NCCNC1CC(=O)NC1=O (stereo not shown)
4. CN(Cc1ccccc1)C1CC(=O)NC1=O (stereo not shown)

A)
1: 29.9; 2: 43.0; 3: 53.6; 4: 1.1

* * *

test system: HL-60; experiment: Viability of sensitive cell line relative to DMSO; type: cell-based
Assignment: determine reported Viability (%) (Relative to DMSO) for the given compounds.
Answers are plain numbers, in %.

Q) Can you look up the measured Viability (%) (Relative to DMSO) of CN(Cc1ccccc1)C1CC(=O)NC1=O (stereo not shown) for me?
A) 10.15

Q) Can you look up the measured Viability (%) (Relative to DMSO) of CNc1ccccc1C(=O)NCCNC1CC(=O)NC1=O (stereo not shown) for me?
A) 12.0

Q) Can you look up the measured Viability (%) (Relative to DMSO) of O=C1CCC(NCCc2ccccn2)C(=O)N1 (stereo not shown) for me?
A) 81.8

# ---- query compound ----
Q) Can you look up the measured Viability (%) (Relative to DMSO) of Cn1c(=O)ccn(CCCCc2ccccc2)c1=O for me?
A) 39.3

* * *

experiment: Viability relative to DMSO; type: cell-based; design: concentration or dose not given beside the values
property: viability (%)
Numbers only, in %.

Past entries and their recorded results:
Q) Can you look up the measured viability of O=C1CCN(CCNC(=O)c2ccccc2)C(=O)N1 for me?
A) 84.9

Q) Can you look up the measured viability of CNc1ccccc1C(=O)NCCn1ccc(=O)[nH]c1=O for me?
A) 97

Q) Can you look up the measured viability of CN1C(=O)CCC(N2Cc3c(N)cccc3C2=O)C1=O.Cl (stereo not shown) for me?
A) 106

Each molecule below has a recorded value; state its viability.
1. O=C1CCC(NC(=O)CCNS(=O)(=O)c2c(F)cccc2F)C(=O)N1 (stereo not shown)
2. O=C1CCC(NS(=O)(=O)c2ccc3c(c2)OCCCO3)C(=O)N1 (stereo not shown)
3. O=c1ccn(Cc2ccccc2)c(=O)[nH]1

A)
[99.4, 73.6, 79.5]

Q) Can you look up the measured viability of O=C1CCC(NS(=O)(=O)c2ccc([N+](=O)[O-])cc2)C(=O)N1 (stereo not shown) for me?
A) 93.4

* * *

molecular target: thalidomide binding domain (TBD) of cereblon (Homo sapiens, UniProt Q96SW2); experiment: Cereblon binding (DSF, FP/FI); conditions: at 200 μM
Sequence (Q96SW2 318-426 limits assumed): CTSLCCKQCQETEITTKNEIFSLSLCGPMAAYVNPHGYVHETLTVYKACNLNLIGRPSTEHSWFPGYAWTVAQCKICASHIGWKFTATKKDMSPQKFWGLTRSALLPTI
Non-standard residues stand in square brackets, D forms with d. Residues, ends and D or L forms follow the SMILES beside them. pGlu = O=C1CC[C@@H](C(=O)O)N1
property: Cereblon Binding (≥50% inhibition at 200 μM)

Past entries and their recorded results:
Q) Can you look up the measured Cereblon Binding (≥50% inhibition at 200 μM) of CN(Cc1ccccc1)C1CC(=O)NC1=O (centres unmarked) for me?
A) No

Q) Can you look up the measured Cereblon Binding (≥50% inhibition at 200 μM) of COC(=O)c1ccccc1NC(=O)[C@H](CC(=O)NC1CCC(=O)NC1=O)NC(=O)OC(C)(C)C (some centres unmarked) for me?
A) Yes*

Q) Can you look up the measured Cereblon Binding (≥50% inhibition at 200 μM) of O=C1CC(N2C(=O)c3cccc([N+](=O)[O-])c3C2=O)C(=O)N1 (centres unmarked) for me?
A) No

Q) Can you look up the measured Cereblon Binding (≥50% inhibition at 200 μM) of Nc1cccc2c1CN([C@H]1CC(=O)NC1=O)C2=O for me?
A) No

Each molecule below has a recorded value; state its Cereblon Binding (≥50% inhibition at 200 μM).
1. Nc1ccc2c(c1)CCN(C1CCC(=O)NC1=O)C2 (centres unmarked)
2. Nc1ccc(Cl)cc1C(=O)NCCn1ccc(=O)[nH]c1=O
3. Nc1cc(Cl)ccc1C(=O)NCCN1CCC(=O)NC1=O
4. O=C1C[C@H](N2C(=O)c3ccccc3C2=O)C(=O)N1
5. Nc1cccc2c1C(=O)N(C1CC(=O)NC1=O)C2=O (centres unmarked)
6. Nc1cc(Cl)ccc1C(=O)NCCn1ccc(=O)[nH]c1=O
7. COC(=O)[C@H](C)NC(=O)[C@@H]1CCC(=O)N1 ([pGlu]-Ala-OMe)

A)
Yes*
Yes*
Yes*
No
No
Yes*
No
